Overview of reported melting point across a group of molecules:

Sample answers from the record:
CCOC(=O)c1csnc1-c1cccc([N+](=O)[O-])c1; 132 to 136 °C
O=C1c2nccc(Cl)c2-c2nc3ccccc3c3ccnc1c23; > 260 °C
O=C1CCC(c2ccc(Cl)c(C(F)(F)F)c2)=NN1; 195 to 198 °C
Fc1ccc2nccc(Cl)c2c1; 71 to 74 °C

Form: molecule = CN(O)C(=O)Nc1ccc(Oc2ccc(NC(=O)N(C)O)cc2)cc1 ; melting point = 183 to 184 °C

Form: molecule = N=C(Nc1ccc(Cl)cc1)Nc1ncccc1OCc1c(F)ccc(F)c1F ; melting point = 153 to 156 °C

* * *

recorded endpoint: melting point

Sample answers from the record:
O=C(O)CSONC(=O)c1c(Cl)ccc2cc(Cl)cnc12; 174 °C
CON=C(c1ccc(Cl)cc1)C(CNOC)CN1CCN(c2ccccn2)CC1 (stereo unspecified); 106 to 109 °C
COC(=O)CNc1cc(-c2c3ccccc3c(Br)c3sc(C)c(C)c23)cc(Br)c1OC; 194 to 198 °C
NS(=O)(=O)c1cc2c(s1)SCCNC2=O; > 270 °C
C=CCN1C(=O)NC(C)CC1OCC (stereo unspecified); 72 to 76 °C

Form: compound = Nc1nc2c(ncn2[C@H]2CC[C@@H](CO)C2)c(=O)[nH]1 ; melting point = 269 °C

Form: compound = CCC1C(=O)c2c(cc(OC)c(Cl)c2Cl)C1c1ccccc1 (stereo unspecified) ; melting point = 114 to 116 °C

Form: compound = COc1cc2c(cc1OC)CN(CCCc1ccc(NC(=O)c3cnc4ccccc4c3)cc1)CC2 ; melting point = 184 to 185 °C

Form: compound = COc1ccc(C(=O)CCC2OCCO2)cc1OC ; melting point = 103 to 105 °C

Form: compound = OC12CC3CC(C1)CC(O)(C3)C2 ; melting point = 169 °C

Form: compound = CCOC(=O)CCCN(C(=O)CCCN(C(=O)c1ccc(Cl)cc1)c1c(C)cccc1C)c1c(C)cccc1C ; melting point = 95 to 97 °C

Form: compound = CCOC(=O)C(C)(C)Oc1ccc(C(=O)Cc2ccccc2)cc1 ; melting point = 110 to 113 °C

Form: compound = O=S(=O)(Nc1ccc2c(OCc3ccc(-c4ccc(Cl)c(Cl)c4)cc3F)cccc2c1)C(F)(F)F ; melting point = 172 to 174 °C

Form: compound = CCOC(=O)COc1cc(-c2nn(C)c(C(F)(F)F)c2Cl)c(F)cc1Cl ; melting point = 130 to 131 °C

Form: compound = CN=C(NC#N)NCCSCc1c[nH]cn1 ; melting point = 138 to 140 °C

Form: compound = COc1ccc(C(=NOC(C)=O)c2cccc(F)c2F)c(O)c1Cl ; melting point = 136 to 139 °C

Form: compound = COC(=O)c1cc2ccc(C(=O)NCCc3ccccn3)cc2[nH]1 ; melting point = 191 to 193 °C

Form: compound = COC(=O)c1ccc(SC(Cn2ccnc2)c2ccccc2C(F)(F)F)cc1 (stereo unspecified) ; melting point = 121 to 126 °C

Form: compound = CCCCC1=C(C)C=NC1=O ; melting point = 95 to 97 °C

Form: compound = CCOC(=O)c1c2ccc(CC(=O)NOCC(=O)N3CCCCC3)ccc-2c(C(=O)OCC)c1N ; melting point = 153 to 155 °C

Form: compound = COc1ccc2c(n1)C1(CO2)C(=O)N(Cc2ncccc2C(F)(F)F)c2ccccc21 (stereo unspecified) ; melting point = 195 to 198 °C

These data points were gathered from a melting point compilation (Tetko et al.; mined from patent text by program, amines drawn as free bases though some values may be those of a salt).
